Tested on: SK-MEL-28 melanoma
Assay: NCI tumour cell line growth inhibition, 48 h
Record form. Attribute: TGI. Fill in for each entry.

{"columns": ["compound", "measured_metric", "measured_value"],
 "data": [
  ["OC1c2[nH]c3ccccc3c2CCN2CCCCC12 (stereo unspecified)", "TGI", "> 100 µM"],
  ["O=C1C(Br)=C(C2=CC(=P(c3ccccc3)(c3ccccc3)c3ccccc3)C=C2)C(=O)C(Br)=C1C1=CC(=P(c2ccccc2)(c2ccccc2)c2ccccc2)C=C1", "TGI", "> 100 µM"],
  ["O=C(CCN1CCOCC1)c1ccc(Oc2ccc(F)cc2)cc1", "TGI", "52.2 µM"],
  ["CC1(C)CC(=O)c2c(nc3c4c([nH]c(-c5ccc([N+](=O)[O-])cc5)c24)CC(C)(C)C3)C1", "TGI", "> 100 µM"]
]}

Go through the items and report each one's TGI.
1. C=CCN(N=O)C(=O)NCCCC(NC(C)=O)C(=O)NCc1ccccc1 (stereo unspecified)
2. O=C(c1cccc(F)c1F)N1CCc2c([nH]c3ccccc23)C1c1ccc2c(c1)OCO2 (stereo unspecified)
3. CC1(C)S[C@H](c2ccccc2C(=O)O)N[C@@H]1CC(=O)O
4. Nc1nc2ccc(NCc3ccc(C(=O)NC(CCC(=O)O)C(=O)O)cc3)cc2c(=O)[nH]1 (stereo unspecified)

["> 100 µM", "> 100 µM", "> 100 µM", "> 100 µM"]

----------
Test system: M14 melanoma
Assay: NCI tumour cell line growth inhibition, 48 h; in the data active = GI50 below about 0.43 µM; inactive = the rest
Answer with one of the outcomes given here: true for active, false for inactive

Example entries begin here.
{"columns": ["compound", "discrete_label"],
 "data": [
  ["O=C(/C=C\\Sc1ccccn1)c1cccc(Br)c1", "false"],
  ["COC(=O)c1c(C)c2n(c1C)C(=O)C(c1ccccc1)=C2", "false"],
  ["C=C1C(=O)O[C@@H]2[C@@H]3O[C@@H](C[C@@H]13)[C@](C)(O)CC/C=C(\\C)CCC[C@H]2C", "false"],
  ["N#Cc1cnc(=O)n(C2CC(O)C(CO)O2)c1 (stereo unspecified)", "false"],
  ["O=C1CCc2c(Oc3ccc4c(c3)[C@H]3[C@@H](O4)[C@@H]3c3nc4ccc(C(F)(F)F)cc4[nH]3)ccnc2N1", "true"],
  ["CCCC(=O)OCC1OC(n2cnc3c(=S)nc(N)[nH]c32)C(OC(=O)CCC)C1OC(=O)CCC (stereo unspecified)", "false"],
  ["Cc1ccc2cc3c(cc(C)c4ccccc43)c3c2c1CC3", "false"],
  ["C=CC(C)c1cccc(C=O)c1O (stereo unspecified)", "false"]
]}

Called result for O=C(NC1CCCCC1)OCc1c(COC(=O)NC2CCCCC2)c(-c2ccc(Cl)c(Cl)c2)n2c1CCC2 false

Called result for CCOC(=O)CCC(NC(=O)c1ccc(Sc2nc3cc(N)cc(N)c3nc2-c2ccccc2)cc1)C(=O)OCC (stereo unspecified) false

Called result for COc1ccc(C(=O)c2cc(OC)c(OC)c(OC)c2)cc1OC(=O)C(Cl)(Cl)Cl true

----------
Tested on: MDA-MB-435
Answer with one of the outcomes given here: Yes (active), No (inactive)

{"columns": ["molecule", "discrete_label"],
 "data": [
  ["CN1C[C@@H](c2ccc(Cl)cc2)[C@]2(NC(=S)N(c3ccc(F)c(Cl)c3)C2=O)[C@@]12C(=O)NC1C=CC(Cl)=C[C@H]12 (stereo partly drawn)", "No"],
  ["O=C1CCC/C=C\\C[C@H]2C=CC(=O)/C2=C/C[C@H](CCc2cccc(C(F)(F)F)c2)O1", "No"],
  ["O=C1OCC(C#Cc2ccccc2)=C1Br", "No"],
  ["O=C(/C=C\\Sc1ccccn1)c1cccc(Br)c1", "No"],
  ["O=C1CCc2c(Oc3ccc4c(c3)[C@H]3[C@@H](O4)[C@@H]3c3nc4ccc(C(F)(F)F)cc4[nH]3)ccnc2N1", "Yes"]
]}

Called result for NC(=O)c1c(Br)n(C2OC(CO)C(O)C2O)c2ncnc(N)c12 (stereo not drawn) No

Called result for Nc1ccccc1NC(=O)c1ccc(CNC(=O)OCc2cccnc2)cc1 No

Called result for COc1ccc(C(=O)c2cc(OC)c(OC)c(OC)c2)cc1OC(=O)C(Cl)(Cl)Cl Yes

Called result for CC(C)N(Cc1c(F)cccc1F)c1ccc(CO)c(Cl)c1 No

Called result for COc1ccc2c(c1)O/C(=C\c1ncc([N+](=O)[O-])n1C)C2=O Yes

Called result for Cc1ccc(-c2nc3nc(-c4ccc(Br)cc4)nc(N4CCCNCC4)c3o2)cc1 No

Called result for Cc1ccc2cc3c(cc(C)c4ccccc43)c3c2c1CC3 No

Called result for S=c1ssnc1-c1ccccn1 No

----------
Record form. Attribute: TGI. Fill in for each entry.
System: NCI-H460 lung
Test: NCI tumour cell line growth inhibition, 48 h
Answers are plain numbers, in µM.

{"columns": ["compound", "measured_value"],
 "data": [
  ["CCCC(=O)OCC1OC(n2cnc3c(=S)nc(N)[nH]c32)C(OC(=O)CCC)C1OC(=O)CCC (stereo not given)", 19.3]
]}

Field: next compound
// TGI lookup, key: O=C(/C=C\Sc1ccccn1)c1cccc(Br)c1 29.6

----------
Test system: HL-60(TB) leukemia
Assay: NCI tumour cell line growth inhibition, 48 h
measured_metric: TGI (µM)
One number for each entry, in µM.

{"columns": ["molecule", "assay_target", "TGI / µM"],
 "data": [
  ["O=C1OCC(C#Cc2ccccc2)=C1Br", "HL-60(TB) leukemia", 0.384]
]}

Go through the items and report each one's TGI.
1. Clc1ccccc1CN1COc2c(cc(Cl)c3cccnc23)C1
2. O=C1NC(=O)C(c2c[nH]c3cc(Br)ccc23)=C1c1cnc[nH]1
3. NC(=O)c1c(Br)n(C2OC(CO)C(O)C2O)c2ncnc(N)c12 (centres undefined)

1: 8.9; 2: 93.3; 3: 4.11

Go through the items and report each one's TGI.
1. CC(C)C[C@@H](NC(=O)[C@@H](Cc1ccccc1)NC(=O)c1cnccn1)B1Oc2ccc(C[C@H](NC(=O)[C@H](Cc3ccc4c(c3)OB([C@@H](CC(C)C)NC(=O)[C@@H](Cc3ccccc3)NC(=O)c3cnccn3)O4)NC(=O)[C@@H](N)CC3CCC4OB([C@@H](CC(C)C)NC(=O)[C@@H](CC5CCCCC5)NC(=O)C5CNCCN5)OC4C3)C(=O)NCCCC[C@@H]3NC(=O)[C@@H](Cc4ccccc4)NC(=O)[C@H](CC(=O)O)NC(=O)CNC(=O)[C@H](CCCNC(=N)N)NC3=O)cc2O1 (some centres undefined)
2. O=c1oc2c3ccc4ccccc4c3n(CCCN3CCCCC3)c2c2ccccc12
3. COc1cccc(/C=C2\COc3ccc(O)c(O)c3C2=O)c1

1. 0.853
2. 42.9
3. 3.2

// TGI lookup, key: CCN(CC)c1ccc2cc3ccc(=[N+](CC)CC)cc-3oc2c1 0.532

----------
Tested on: NCI/ADR-RES ovarian
Assay: NCI tumour cell line growth inhibition, 48 h; in the data active = GI50 below about 0.43 µM; inactive = the rest
Answer with one of the outcomes given here: 1 (active), -1 (inactive)

{"columns": ["substance_smiles", "discrete_label"],
 "data": [
  ["CC(C)(C)C(=O)OCCNc1nc(-c2ccccc2)nc2ccccc12", -1],
  ["COC(=O)C1=C(C(=O)OC)SC(=C(Cl)C(=S)Oc2ccccc2N)S1", -1],
  ["Nc1ccccc1NC(=O)c1ccc(CNC(=O)OCc2cccnc2)cc1", -1],
  ["COc1ccc(C(=O)c2cc(OC)c(OC)c(OC)c2)cc1OC(=O)C(Cl)(Cl)Cl", 1],
  ["COc1cccc(/C=C2\\COc3ccc(O)c(O)c3C2=O)c1", -1]
]}

Called result for N#C/C(=C1C=C/C(=N/O)C(Cl)=C/1)c1ccc(Cl)cc1 -1

Called result for O=C1CCC/C=C\C[C@H]2C=CC(=O)/C2=C/C[C@H](CCc2cccc(C(F)(F)F)c2)O1 -1

----------
Tested on: LXFL 529 NSCLC
Assay: NCI tumour cell line growth inhibition, 48 h
measured_metric: TGI

{"columns": ["compound", "TGI"],
 "data": [
  ["COc1nc2c(nc(N)n2C2OC(CO)C(O)C(O)C2O)c(=O)[nH]1 (stereo not drawn)", "> 100 µM"]
]}

Go through the items and report each one's TGI.
1. Nc1ccc(C(=O)N/C(=C\C=C\c2ccco2)c2nc3c4c(ccc3[nH]2)C(=O)c2ccccc2C4=O)cc1
2. O=S(=O)(SCCCCSS(=O)(=O)c1ccc(Cl)cc1)c1ccc(Cl)cc1
3. Cn1cc/c(=N\N=c2/ccn(C)c3ccccc23)c2ccccc21
4. c1ccc2nc(-c3ccc4c(c3)OCO4)ccc2c1
5. CC(=O)Nc1ccccc1S(=O)(=O)c1ccccc1

1. > 100 µM
2. 24.7 µM
3. 27.2 µM
4. > 100 µM
5. > 100 µM

Go through the items and report each one's TGI.
1. CCCCCC(/C=C/[C@@H]1[C@H]2CC(=O)O[C@H]2C[C@H]1N1CCOCC1)OC1CCCO1 (stereo partly drawn)
2. C=CCN(N=O)C(=O)NCCCC(NC(C)=O)C(=O)NCc1ccccc1 (stereo not drawn)
3. OCCCCOC(c1ccccc1)(c1ccccc1)c1ccccc1
4. CCC1=C(CC)C1(C#N)[N+](=O)[O-]

["> 100 µM", "> 100 µM", "> 100 µM", "> 100 µM"]

Go through the items and report each one's TGI.
1. CC12CCCCC1C(=O)C2(Cl)Cl (stereo not drawn)
2. CCc1cccc(C)c1NC(=O)CCc1n[nH]c(=S)o1
3. CC(=O)OC(C[C@H](C)[C@@H]1CC[C@]2(C)C3=CCC4C(C)(C)C(=O)CC[C@]4(C)C3CCC12C)C1OC1(C)C (stereo partly drawn)

6 µM
> 100 µM
> 100 µM
